- protocol_text: Phase I drug-drug interaction study with sevelamer carbonate
- Assay type: in vivo, human
- test_conditions: human, plasma, oral, vadadustat 300 mg concomitantly with sevelamer carbonate 1600 mg, immediately after breakfast; mean ± SD
reported_metric: AUC(0-t) (µg·h/mL)
Response body: numeric value in µg·h/mL, unit text excluded.

Tell me the measured AUC(0-t) of O=C(O)CNC(=O)c1ncc(-c2cccc(Cl)c2)cc1O [Compound 1] , please. 121

----------
- protocol_text: Phase I drug-drug interaction study with probenecid (Part 1, Arm 2)
- Type: in vivo, human
- test_conditions: both sexes, human, plasma, oral; vadadustat 300 mg single dose + probenecid 500 mg Q12h (multiple doses), fasted; read-out: AUClast, geometric LSM, Treatment V + P
reported_metric: AUC(0-t) (µg·h/mL)
Quick note: give the figure in µg·h/mL, leave out the unit.

Given O=C(O)CNC(=O)c1ncc(-c2cccc(Cl)c2)cc1O [Compound 1] , state its recorded AUC(0-t). 417

These data points were gathered from patent US20240148707A1.
